Cited source: ChEMBL document CHEMBL1250484

deltaA for assorted compounds
# Assay name: Antioxidant activity assessed as ABTS radical scavenging activity after 1 min
# Assay type: functional
Measurement name: deltaA

# Smiles code, Measurement name, Measured result
data = [
    ("Cc1cccc2c1Nc1c(c(=O)[nH]c3c(C)cccc13)S2", "deltaA", 0.62),
    ("COc1cccc2c1Nc1c(c(=O)[nH]c3c(OC)cccc13)S2", "deltaA", 0.055),
    ("Cc1ccc2[nH]c(=O)c3c(c2c1)Nc1c(C)cccc1S3", "deltaA", 0.56),
    ("Cc1ccc2[nH]c(=O)c3c(c2c1)Nc1c(cccc1C(F)(F)F)S3", "deltaA", 0.328),
    ("COc1cccc2c3c(c(=O)[nH]c12)Sc1cc(Br)ccc1N3", "deltaA", 0.141),
    ("Cc1ccc2[nH]c(=O)c3c(c2c1)Nc1ccc(Br)cc1S3", "deltaA", 0.412),
]
